Target: EGFR (Homo sapiens, UniProt P00533)
Construct: Kinases are expressed as either kinase domains or full length constructs; made in house
Sequence (P00533 25-1210, species assumed): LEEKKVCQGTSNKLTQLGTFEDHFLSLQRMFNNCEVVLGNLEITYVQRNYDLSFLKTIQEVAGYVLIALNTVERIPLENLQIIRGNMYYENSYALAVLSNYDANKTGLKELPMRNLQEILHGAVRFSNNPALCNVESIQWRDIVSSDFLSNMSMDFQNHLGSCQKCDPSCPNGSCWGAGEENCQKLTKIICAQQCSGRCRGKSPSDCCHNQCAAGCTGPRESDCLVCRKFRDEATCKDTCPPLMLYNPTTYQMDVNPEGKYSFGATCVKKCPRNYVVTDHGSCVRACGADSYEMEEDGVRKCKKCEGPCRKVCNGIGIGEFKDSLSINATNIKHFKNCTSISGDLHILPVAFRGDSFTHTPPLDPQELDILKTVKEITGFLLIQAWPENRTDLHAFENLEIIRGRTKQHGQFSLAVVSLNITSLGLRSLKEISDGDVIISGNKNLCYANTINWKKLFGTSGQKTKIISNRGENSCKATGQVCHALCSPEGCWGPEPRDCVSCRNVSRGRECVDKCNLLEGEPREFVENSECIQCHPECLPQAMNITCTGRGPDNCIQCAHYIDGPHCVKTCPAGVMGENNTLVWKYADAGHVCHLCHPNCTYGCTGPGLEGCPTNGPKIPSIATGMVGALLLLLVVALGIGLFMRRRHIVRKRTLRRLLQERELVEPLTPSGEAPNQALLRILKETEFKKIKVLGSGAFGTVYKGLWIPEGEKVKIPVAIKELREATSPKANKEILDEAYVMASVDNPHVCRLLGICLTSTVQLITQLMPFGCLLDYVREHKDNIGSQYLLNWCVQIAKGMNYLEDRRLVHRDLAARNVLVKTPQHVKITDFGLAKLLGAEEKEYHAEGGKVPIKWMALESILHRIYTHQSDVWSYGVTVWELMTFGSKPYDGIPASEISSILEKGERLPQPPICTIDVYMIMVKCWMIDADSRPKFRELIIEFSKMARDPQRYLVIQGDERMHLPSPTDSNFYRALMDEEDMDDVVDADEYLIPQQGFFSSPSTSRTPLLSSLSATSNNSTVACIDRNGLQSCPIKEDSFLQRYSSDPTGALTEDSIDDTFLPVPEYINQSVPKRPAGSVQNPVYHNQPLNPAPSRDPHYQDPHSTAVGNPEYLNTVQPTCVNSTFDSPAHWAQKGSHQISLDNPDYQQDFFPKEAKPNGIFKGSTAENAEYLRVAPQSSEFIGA
Assay: Kinase inhibition assay (33P transfer), EGFR
Type: biochemical
Conditions: Table 2, kinase inhibition class; read-out: EGFR-1
pIC50: −log10 of the molar value.
Reported metric: pIC50

[
  {
    "Sample smiles": "COc1cc(Nc2ncnc(-n3c(Nc4cc(OC)c(OC)c(OC)c4)nc4ccccc43)n2)cc(OC)c1OC",
    "Reported metric": "pIC50",
    "Result": "< 5.09"
  },
  {
    "Sample smiles": "COc1cc(Nc2ncnc(-c3cccnc3NC(C)C)n2)cc(OC)c1OC",
    "Reported metric": "pIC50",
    "Result": "< 4.94"
  },
  {
    "Sample smiles": "COc1ccc(Nc2ncnc(Nc3ccc(OCc4ccccc4)cc3)n2)cc1OC",
    "Reported metric": "pIC50",
    "Result": "5.25 to 6.03"
  },
  {
    "Sample smiles": "COc1cc(Nc2ncnc(Nc3cc(-c4ccco4)n[nH]3)n2)cc(OC)c1",
    "Reported metric": "pIC50",
    "Result": "5.20 to 5.98"
  },
  {
    "Sample smiles": "COC(=O)c1cc(Nc2ncnc(Nc3cc(-c4ccco4)n[nH]3)n2)cc(C(=O)OC)c1",
    "Reported metric": "pIC50",
    "Result": "< 4.99"
  },
  {
    "Sample smiles": "CCN(c1ccc(C)cc1)c1ncnc(Nc2cc(OC)c(OC)c(OC)c2)n1",
    "Reported metric": "pIC50",
    "Result": "> 6.00"
  },
  {
    "Sample smiles": "c1ccc(Cn2ncc3cc(Nc4ncnc(Nc5ncccn5)n4)ccc32)cc1",
    "Reported metric": "pIC50",
    "Result": "5.22 to 6.00"
  },
  {
    "Sample smiles": "CCN(CC)CCOc1cc(Nc2ncnc(-n3c(N)nc4ccccc43)n2)ccc1OC",
    "Reported metric": "pIC50",
    "Result": "< 5.00"
  },
  {
    "Sample smiles": "COc1ccc(Nc2ncnc(N(C/C=C/c3ccccc3)c3ccc(Cl)cc3)n2)cc1OC",
    "Reported metric": "pIC50",
    "Result": "> 6.07"
  },
  {
    "Sample smiles": "COc1cc(Nc2ncnc(Nc3ccc(O)cc3Cl)n2)cc(OC)c1OC",
    "Reported metric": "pIC50",
    "Result": "5.23 to 6.00"
  }
]
